Where do the numbers come from? From paper PMC6170201.

targetUnderTest: UGT1A6 (Homo sapiens)
Sequence (P19224 27-532): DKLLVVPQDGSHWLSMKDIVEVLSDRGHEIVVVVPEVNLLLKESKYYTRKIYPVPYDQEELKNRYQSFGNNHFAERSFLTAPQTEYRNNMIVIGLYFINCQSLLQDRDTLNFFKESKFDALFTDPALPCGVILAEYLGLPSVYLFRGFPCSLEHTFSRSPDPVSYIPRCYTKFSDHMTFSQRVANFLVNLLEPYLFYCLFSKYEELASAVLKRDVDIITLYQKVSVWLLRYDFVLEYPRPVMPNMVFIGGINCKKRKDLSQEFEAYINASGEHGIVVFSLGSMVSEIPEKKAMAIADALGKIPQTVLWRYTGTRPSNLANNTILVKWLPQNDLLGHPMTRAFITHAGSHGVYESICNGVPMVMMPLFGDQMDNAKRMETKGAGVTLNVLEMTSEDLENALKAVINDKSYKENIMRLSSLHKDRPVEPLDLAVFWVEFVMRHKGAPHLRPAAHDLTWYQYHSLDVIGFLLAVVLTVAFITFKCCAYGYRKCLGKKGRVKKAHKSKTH
runDescription: Serotonin glucuronidation, UGT1A6-infected Sf9 treated cell lysates
experimentalReadout: IC50

* COc1cc(/C=C/C(=O)CC(=O)/C=C/c2ccc(O)c(OC)c2)ccc1O | 31.6 µM
* Cc1cc(O)c2c(=O)c3c(O)cc(O)c4c5c(O)cc(O)c6c(=O)c7c(O)cc(C)c8c1c2c(c34)c(c78)c65 | > 30 µM
* COc1c(C[C@@H](C)OC(=O)Oc2ccc(O)cc2)c2c3c(C[C@@H](C)OC(=O)c4ccccc4)c(OC)c(=O)c4c(O)cc(OC)c(c5c(OC)cc(O)c(c1=O)c52)c43 | > 2 µM
* CC(=O)c1c(O)c(C)c(O)c(Cc2c(O)c3c(c(C(=O)/C=C/c4ccccc4)c2O)OC(C)(C)C=C3)c1O | > 40 µM
